Molecular target: CDK2/Cyclin E complex (UniProt P24941 1-298; P24864 1-410); further: test concentration or dose not given here
Assay: cell-based or functional assay
Ends that are not written are not given here.
Each entry below lists one item and its recorded % Inhibition, cyclin E/CDK2 kinase value.
Form entry: enter the amount, then its unit.

As a guide, the following entries are already answered.
DFYHSKRRLI-NH2 [DFYHSKRRLI-NH2]    35%
YHSKRRLIFS-NH2 [YHSKRRLIFS-NH2]    80%
DFYHSKRRLIFA-NH2 [DFYHSKRRLIFA-NH2]    70%
DFYHSKRALIFS-NH2 [DFYHSKRALIFS-NH2]    70%
YHSKRRLI-NH2 [YHSKRRLI-NH2]    45%
HSKRRL-NH2 [HSKRRL-NH2]    45%

[in] % Inhibition, cyclin E/CDK2 kinase for SKRRLIF-NH2 [SKRRLIF-NH2] ?
[out] 80%

[in] % Inhibition, cyclin E/CDK2 kinase for HSKRRLI-NH2 [HSKRRLI-NH2] ?
[out] 35%
